Assay: E. coli growth modulation, two-sided OD650, primary screen, E. coli filamentation project, strain DRC41, 24 h (AID 1093);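 note: MC1000 strain lacking acrAB efflux and sulA so SOS filamentation is blocked; test concentration not given here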
Details: OD650, 24 h, higher = more signal, called active from +8 up or from −8 down
Overview of reported z-score across a group of compounds:

[
  {
    "COMPOUND": "N#Cc1ccc(NN2C(C(O)C(c3ccccc3)c3ccccc3)C=CC3C(=O)N(c4ccccc4)C(=O)C32)cc1 (centres undefined)",
    "z-score": -0.0873
  },
  {
    "COMPOUND": "COC(=O)[C@@]1(CCC(=O)OC(C)(C)C)N=C(c2ccc(OCCCO)cc2)O[C@H]1c1ccccc1N=[N+]=[N-]",
    "z-score": 0.817
  },
  {
    "COMPOUND": "O=C1C[C@@](C(=O)NC2CC2)(c2ccc([N+](=O)[O-])cc2)[C@@H](c2ccc(CO)cc2I)N1C1CCCCC1",
    "z-score": 0.233
  },
  {
    "COMPOUND": "COc1cc2c(cc1O)C(c1cccs1)N(C)CC2 (centres undefined)",
    "z-score": 0.841
  },
  {
    "COMPOUND": "CCCCN1CC=CC23O[C@@H]4C=CCCOC(=O)C4[C@H]2C(=O)N(CCCCCCO)[C@@H]3C1=O (some centres undefined)",
    "z-score": -0.444
  },
  {
    "COMPOUND": "CCS[C@H]1[C@@H](C(=O)O)[C@H](c2ccc(C)cc2)N(S(=O)(=O)c2ccc(C)cc2)[C@@H]1CC",
    "z-score": 0.401
  },
  {
    "COMPOUND": "C[C@@]1([C@@H](NC(=O)c2ccc(-c3ccccc3)cc2)c2ccc(Cl)cc2)C[C@H]1C1CCCCC1",
    "z-score": -0.586
  },
  {
    "COMPOUND": "COCCOC(=O)N1C(=O)[C@@]2(c3cc(C#CCC(C(=O)OC)C(=O)OC)ccc31)[C@H](C(=O)Nc1nc3ccccc3s1)[C@H]1C(=O)O[C@H](c3ccccc3)[C@H](c3ccccc3)N1[C@@H]2c1ccccc1OCCO",
    "z-score": 0.374
  },
  {
    "COMPOUND": "C[N+](C)(C)CCCCNC(=O)[C@@H]1C[C@@H]2C(=O)N[C@@H](Cc3ccccc3)C(=O)N2[C@@H]1c1cccc(OCCO)c1",
    "z-score": 1.07
  },
  {
    "COMPOUND": "CCOC(=O)C[C@H]1[C@H](OC(=O)c2ccc(C(=O)c3ccccc3)cc2)[C@@H](NC(=O)c2ccc3ccccc3c2)c2cc(OCCCO)ccc2N1C(=O)Cc1ccc(OC)cc1",
    "z-score": 0.458
  },
  {
    "COMPOUND": "C=CCNC(=O)[C@@H]1[C@H]2C(=O)O[C@H](c3ccccc3)[C@H](c3ccccc3)N2[C@H](c2ccc(O)cc2)[C@@]12C(=O)N(C(=O)OCCOC)c1ccc(C#CCNC(N)=O)cc12",
    "z-score": -0.213
  },
  {
    "COMPOUND": "COCCOC(=O)N1C(=O)[C@@]2(c3cc(C#CCCO)ccc31)[C@H](C(=O)N1CCCCCCC1)[C@H]1C(=O)O[C@H](c3ccccc3)[C@H](c3ccccc3)N1[C@@H]2c1ccc(OCCO)cc1",
    "z-score": 0.584
  },
  {
    "COMPOUND": "CC[C@@H]1C=C(C(=O)O)[C@H](c2ccc(Br)cc2)N1S(=O)(=O)c1ccc(C)cc1",
    "z-score": -0.319
  },
  {
    "COMPOUND": "COC(=O)[C@@]1(Cc2ccc(OC)cc2)[C@H]2c3cc(C(=O)N(C)C)n(CCc4ccccn4)c3C[C@H]2CN1C(=O)c1ccccc1",
    "z-score": -0.901
  }
]

Data credit: PubChem BioAssay
